Listing of recorded amyloid nucleation score by entry.
- Method Summary: amyloid nucleation score (Sup35N fusion, yeast selection) (log enrichment); library NNK1; higher = more nucleation; inactive = no reads after selection;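 note: zero at mode of non-aggregating sequences after 7 days selection at 30°C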
Measured Endpoint: amyloid nucleation score

# Sequence Text, Measured Endpoint, Quantitative Readout
measured = [
    ("MQNRCSCWNFECRAPW", "amyloid nucleation score", 1.06),
    ("TLRLAREGWWEWKHVSRGEY", "amyloid nucleation score", -0.033),
    ("HFSGYMFCNPLTSGIVNATW", "amyloid nucleation score", 6.4),
    ("SHSFPGMWTDDTSALASREK", "amyloid nucleation score", 0.306),
    ("RSVYFIYTWIWQVSAVIFLC", "amyloid nucleation score", 0.107),
    ("SVLCHCVLNVWLGWHLWIDP", "amyloid nucleation score", 0.707),
    ("GMGGGICSSEKMRCGNVEGV", "amyloid nucleation score", -0.857),
    ("DSSLEVRRNRTSRLYAHFT", "amyloid nucleation score", -0.218),
    ("GRGLADISYVYRDVWICLAI", "amyloid nucleation score", 0.83),
    ("FICRFDVHWHSGMFSLYPWC", "amyloid nucleation score", 0.682),
    ("MRTLWVSKSGIRG", "amyloid nucleation score", -0.15),
    ("NTYWVSSAS", "amyloid nucleation score", 0.078),
    ("DTENPSYMNVNCYWRLLFSR", "amyloid nucleation score", 0.669),
    ("FWNMWAYEMRFVLRNYAL", "amyloid nucleation score", -0.908),
    ("FYIVFFTCLASSS", "amyloid nucleation score", 1.94),
    ("FMRMFVIIKHHVEVRRPRFI", "amyloid nucleation score", 0.413),
]
